Cited source: the RepoRT retention time repository

Assay: Agilent ZORBAX 300 SB-C18, 150 × 1 mm, 3.5 µm; A: water + 0.01% heptafluorobutyric acid; B: acetonitrile + 0.01% heptafluorobutyric acid; gradient (min/%B) 0/0 100/90
Conditions: stereoisomer not certain
endpoint: LC retention time

compound	val
CCCC[N+](CCCC)(CCCC)CCCC	13.2 min
O=C(O)CNC(=O)Nc1ccccc1	7.74 min
C=CCN1CCC23c4c5ccc(O)c4OC2C(O)C=CC3C1C5 (centres undefined)	8.18 min
CCCCOC(=O)c1ccc(NC(=O)CCCC)cc1	16.3 min
Nc1ccc(CCc2ccncc2)cc1	7.22 min
O=C1Nc2ccccc2C1CCCO (centres undefined)	8.22 min
CC(C(=O)c1ccccc1)[n+]1ccccc1 (centres undefined)	8.43 min
Cc1c(-c2ccccc2)cc(-c2ccccc2)nc1-c1ccccc1	19.2 min
Nc1cccc(Nc2ccccc2)c1	9.53 min
Cc1ccc(C2C3=C(CC(C)(C)CC3=O)NC3=C2C(=O)CC(C)(C)C3)cc1	13.2 min
c1cncc(-c2nn[nH]n2)c1	5.35 min
CC(C)C(C)N (centres undefined)	6.98 min
CC(C)CC(N)C(N)=O (centres undefined)	6.71 min
C(=Cc1cccs1)c1ccccn1	9.18 min
Cc1nc(N)cc(=O)[nH]1	2.75 min
COC(=O)CCc1ccc(C)c(N)c1	9.03 min
c1nc[nH]n1	1.93 min
Cc1ccc(NC(=O)c2c(C)[nH]c(C)c2C)c(C)c1	13.2 min
CN(C)CCCNCc1ccc2[nH]c3c(c2c1)CCCC3	8.71 min
Nc1ccccc1C(=O)N1CCNC(=O)C1	6.83 min
C=CCC1(C(C)C)C(=O)NC(=O)NC1=O	9.74 min
O=C1CCCN1CP(=O)(O)CCc1ccccc1	7.26 min
O=C(Nc1cccnc1)c1ccc(=O)[nH]n1	6.84 min
COc1cc(NC(C)=O)cc(OC)c1OC	8.42 min
C1CCC(OCCN2CCN(CCOC3CCCCC3)CC2)CC1	10.9 min
Cn1c(=O)c(=O)n(CC(=O)c2ccc3c(c2)CCCC3)c2ccccc21	14.1 min
O=c1cccc[nH]1	4.79 min
Cc1cc(=O)cc(C)n1C	6.83 min
COc1ccc(OC)c2c(C)cc(C)nc12	8.94 min
C=CCN(C)C	5.73 min
CN(C)CCCNCCCN(C)C	7.49 min
CCNc1cc(C)ccc1O	7.6 min
Cn1c(=O)[nH]c(=O)n(C)c1=O	5.9 min
COC(=O)c1ccccc1NCc1ccccc1CNc1ccccc1C(=O)OC	20.7 min
CN1CCOC(c2ccccc2)c2ccccc2C1 (centres undefined)	10.1 min
C=CCC(N)(CC=C)C1=CC(CC(=C)C)NC(CC(=C)C)C1 (centres undefined)	8.79 min
CC1(C)CC(=NNC(=O)C(=O)NN=C2CC(C)(C)NC(C)(C)C2)CC(C)(C)N1	7.32 min
CN1C(=O)C(CCC(N)=O)NC1=S (centres undefined)	6.53 min
COc1ccc(-c2cnc3ccccc3n2)cc1	14.7 min
CCCCN(C)C(=O)Cn1c(=O)c2c(C)cc(C)nc2n(-c2ccccc2)c1=O	15 min
CCN(CC)c1ccc(C=Nc2ccccc2)c(O)c1	11.5 min
COc1ccc(C=CC(=O)C=Cc2ccc(OC)cc2)cc1	16.1 min
c1ccc(CC2CCN(Cc3ccccn3)CC2)cc1	10.1 min
Cc1ccc(-c2nc(-c3ccc(-c4ccccc4)cc3)[nH]c2-c2ccccc2)cc1C	15 min
O=C(NNC(=O)C1CCCCC1C(=O)O)C(c1ccccc1)c1ccccc1 (centres undefined)	11.8 min
NCc1ccncc1	6.44 min
CCN(CCCc1ccccc1)CCCc1ccccc1	12.5 min
CCOC(=O)c1ccc2[nH]c3c(c2c1)CCCC3C(=O)OCC (centres undefined)	16.2 min
CC[N+](C)(CC)CC	6.48 min
CCSc1cccc2cccnc12	11.7 min
c1ccc(CNCCNc2ccccc2)cc1	9.6 min
CN1CCCC1	5.54 min
CC(C)NC(=O)c1ccc2ccccc2n1	13.1 min
CC(=NNC(=O)CNC(=O)c1ccco1)c1ccc(C(C)(C)C)cc1	13.9 min
